- assay.text: solvent screen: PDO mixture with single solvents, distribution between solvent and aqueous phase
- Type: physicochemical
- test.settings: conc. in solvent phase / conc. in aqueous phase; aqueous solution 46% w/v PDO, 3.5% glycerol, […] glucose; 30° C.
test.readout: Distribution Coefficient PDO

See these solved cases before continuing.
>>> recorded_result("CCCCCCCC/C=C\\CCCCCCCCO [Oleyl Alcohol]")
0.038
>>> recorded_result("CC(=O)OC(C)C [isopropyl acetate]")
0.024
>>> recorded_result("CCCCCCCC/C=C\\CCCCCCCC(=O)O [Oleic acid]")
0.009

P: CC(=O)CC(C)C [4-Methyl Pentan-2-one]
Q: CCCCCO [Pentan-1-ol]
Lower Distribution Coefficient PDO: P or Q ? When you have decided, please share the label of that item. P
(P: 0.033, Q: 0.609)

###

- assay.text: solvent screen: PDO mixture with single solvents, distribution between solvent and aqueous phase
- Format: physicochemical
- test.settings: distribution coefficient of PDO divided by that of glycerol; 30° C.
test.readout: Selectivity PDO/Glycerol

>>> recorded_result("CCCCCCCC/C=C\\CCCCCCCCO [Oleyl Alcohol]")
1.60

1: CC(=O)CC(C)C [4-Methyl Pentan-2-one]
2: CCCCCO [Pentan-1-ol]
Look at 1 and 2 . Which one has the lower recorded Selectivity PDO/Glycerol number? Record your answer as the label of the chosen record. 2

###

- assay.text: solvent screen: PDO mixture with single solvents, distribution between solvent and aqueous phase
- Assay type: physicochemical
- test.settings: conc. in solvent phase / conc. in aqueous phase; aqueous solution 46% w/v PDO, 3.5% glycerol, […] glucose; 30° C.
test.readout: Distribution Coefficient Glycerol

a: CCCCCCCC/C=C\CCCCCCCC(=O)O
b: CCCCCO
c: CC(=O)CC(C)C
d: CC(=O)OC(C)C [isopropyl acetate]
Which order do the above compounds take when sorted by rising Distribution Coefficient Glycerol? Smallest first. Respond with an ordered listing of the labels, as requested. a, d, c, b

###

- assay.text: solvent screen: PDO mixture with single solvents, distribution between solvent and aqueous phase
- Assay type: physicochemical
- test.settings: conc. in solvent phase / conc. in aqueous phase; aqueous solution 46% w/v PDO, 3.5% glycerol, […] glucose; 30° C.
test.readout: Distribution Coefficient Glucose

Before answering, review these 3 worked examples.
>>> recorded_result("CCCCCO")
0.256
>>> recorded_result("CCCCCCCC/C=C\\CCCCCCCCO")
0.001
>>> recorded_result("CC(=O)CC(C)C")
0.001

a: CC(=O)OC(C)C [isopropyl acetate]
b: CCCCCCCC/C=C\CCCCCCCC(=O)O
I would appreciate it if you could say which entry, a or b , has the lower Distribution Coefficient Glucose value. Your choice should be expressed through its label. a
